test system: LoVo; assay: Anticancer activity against human LoVo cells assessed as inhibition of cell proliferation by MTT assay; assay type: functional, cell-based
pIC50: −log10 of the molar value.

{"Input Smiles": "C[C@H](CCC(=O)O)[C@H]1CC[C@H]2[C@@H]3CC[C@@H]4C[C@H](O)CC[C@]4(C)[C@H]3CC[C@]12C", "Inequality Sign": "<", "pIC50": 3.70}
{"Input Smiles": "C[C@H](CCC(=O)OCc1ccc([N+](=O)[O-])cc1)[C@H]1CC[C@H]2[C@@H]3[C@H](O)C[C@@H]4C[C@H](O)CC[C@]4(C)[C@H]3C[C@H](O)[C@]12C", "Inequality Sign": "=", "pIC50": 4.61}
{"Input Smiles": "C[C@H](CCC(=O)NCc1ccccc1O)[C@H]1CC[C@H]2[C@@H]3[C@H](O)C[C@@H]4C[C@H](O)CC[C@]4(C)[C@H]3C[C@H](O)[C@]12C", "Inequality Sign": "=", "pIC50": 4.29}
{"Input Smiles": "COC(=O)c1ccc(COC(=O)CC[C@@H](C)[C@H]2CC[C@H]3[C@@H]4[C@H](O)C[C@@H]5C[C@H](O)CC[C@]5(C)[C@H]4CC[C@]23C)cc1", "Inequality Sign": "=", "pIC50": 4.55}
{"Input Smiles": "Cc1ccc(COC(=O)CC[C@@H](C)[C@H]2CC[C@H]3[C@@H]4[C@H](O)C[C@@H]5C[C@H](O)CC[C@]5(C)[C@H]4C[C@H](O)[C@]23C)cc1", "Inequality Sign": "=", "pIC50": 4.73}
{"Input Smiles": "C[C@H](CCC(=O)O)[C@H]1CC[C@H]2[C@@H]3[C@H](O)C[C@@H]4C[C@H](O)CC[C@]4(C)[C@H]3C[C@H](O)[C@]12C", "Inequality Sign": "<", "pIC50": 3.70}
{"Input Smiles": "C[C@H](CCC(=O)OCc1cc(O)cc(O)c1)[C@H]1CC[C@H]2[C@@H]3CC[C@@H]4C[C@H](O)CC[C@]4(C)[C@H]3CC[C@]12C", "Inequality Sign": "=", "pIC50": 4.22}
{"Input Smiles": "CC(=O)Oc1ccc(OC(=O)CC[C@@H](C)[C@H]2CC[C@H]3[C@@H]4[C@@H](O)C[C@@H]5C[C@@H](O)CC[C@]5(C)[C@H]4CC[C@]23C)cc1", "Inequality Sign": "=", "pIC50": 3.78}
{"Input Smiles": "Cc1ccc(COC(=O)CC[C@@H](C)[C@H]2CC[C@H]3[C@@H]4[C@H](O)C[C@@H]5C[C@H](O)CC[C@]5(C)[C@H]4CC[C@]23C)cc1", "Inequality Sign": "=", "pIC50": 4.56}
{"Input Smiles": "C[C@H](CCC(=O)OCc1cccc(O)c1)[C@H]1CC[C@H]2[C@@H]3CC[C@@H]4C[C@H](O)CC[C@]4(C)[C@H]3CC[C@]12C", "Inequality Sign": "=", "pIC50": 3.80}

---

tested on: RAW264.7; assay: Anti-inflammatory activity against mouse RAW264.7 cells assessed as inhibition of LPS-induced NO production incubated for 24 hrs in presence of LPS by Griess reagent-based assay; format: functional, cell-based; conditions: RAW264.7, 24 h

{"Input Smiles": "C[C@H](CCC(=O)OCc1ccc([N+](=O)[O-])cc1)[C@H]1CC[C@H]2[C@@H]3[C@H](O)C[C@@H]4C[C@H](O)CC[C@]4(C)[C@H]3C[C@H](O)[C@]12C", "Unit Label": "µM", "IC50": 20.6}
{"Input Smiles": "Cc1ccc(COC(=O)CC[C@@H](C)[C@H]2CC[C@H]3[C@@H]4[C@H](O)C[C@@H]5C[C@H](O)CC[C@]5(C)[C@H]4C[C@H](O)[C@]23C)cc1", "Unit Label": "µM", "IC50": 20.6}
{"Input Smiles": "COC(=O)c1ccc(COC(=O)CC[C@@H](C)[C@H]2CC[C@H]3[C@@H]4[C@H](O)C[C@@H]5C[C@H](O)CC[C@]5(C)[C@H]4C[C@H](O)[C@]23C)cc1", "Unit Label": "µM", "IC50": 20.6}
{"Input Smiles": "C[C@H](CCC(=O)OCc1cc(O)cc(O)c1)[C@H]1CC[C@H]2[C@@H]3[C@H](O)C[C@@H]4C[C@H](O)CC[C@]4(C)[C@H]3CC[C@]12C", "Unit Label": "µM", "IC50": 16.3}
{"Input Smiles": "C[C@H](CCC(=O)OCc1cc(O)cc(O)c1)[C@H]1CC[C@H]2[C@@H]3CC[C@@H]4C[C@H](O)CC[C@]4(C)[C@H]3CC[C@]12C", "Unit Label": "µM", "IC50": 12.1}
{"Input Smiles": "COc1cc(COC(=O)CC[C@@H](C)[C@H]2CC[C@H]3[C@@H]4[C@H](O)C[C@@H]5C[C@H](O)CC[C@]5(C)[C@H]4C[C@H](O)[C@]23C)cc(OC)c1", "Unit Label": "µM", "IC50": 20.6}
